The reported numbers originate from patent US8741906B2.

# TARGET_OF_ASSAY: human CB2 receptors (Homo sapiens, UniProt P34972)
# Construct: expressed in transfected cells; host or cells: CHO cells
# Sequence (P34972 whole entry): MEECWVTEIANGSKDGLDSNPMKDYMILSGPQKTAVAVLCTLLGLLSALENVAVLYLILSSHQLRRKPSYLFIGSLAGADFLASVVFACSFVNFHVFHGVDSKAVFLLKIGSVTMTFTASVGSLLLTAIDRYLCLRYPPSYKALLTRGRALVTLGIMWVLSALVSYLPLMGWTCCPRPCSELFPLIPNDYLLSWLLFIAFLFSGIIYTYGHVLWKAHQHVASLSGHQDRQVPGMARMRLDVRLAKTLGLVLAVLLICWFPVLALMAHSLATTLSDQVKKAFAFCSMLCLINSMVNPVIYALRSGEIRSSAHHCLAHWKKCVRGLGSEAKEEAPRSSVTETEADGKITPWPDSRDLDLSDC
# ASSAY_NAME: functional cAMP assay, human CB2
# Format: cell-based
# CONDITION_SUMMARY: CHO cells expressing human CB2, cAMP; read-out: human CB2 EC50
METRIC_NAME: pEC50
Keep it numeric: pEC50 is minus log10 of the concentration in mol/L.

Study these solved cases before continuing.
{"columns": ["COMPOUND", "pEC50"],
 "data": [
  ["CC(C)(C)c1nc(N2CC[C@H](O)[C@@H]2CO)c2nnn(Cc3ncccc3Cl)c2n1", 8.42],
  ["CC(C)(C)c1nc(N2CCC(F)(F)C2)c2nnn(Cc3nnnn3C3CC3)c2n1", 10.00],
  ["CC(C)(C)c1nc(N2CCC(F)(F)C2)c2nnn(CC(F)(F)F)c2n1", 8.64],
  ["CC(C)(C)c1nc(N2CCC(F)(F)C2)c2nnn(Cc3c(Cl)ccc(F)c3Cl)c2n1", 10.00],
  ["CC1COCCN1c1nc(C(C)(C)C)nc2c1nnn2Cc1ccccc1Cl (stereo not shown)", 8.06]
]}

Q. Requested read-out pEC50, target or system human CB2 receptors (Homo sapiens, UniProt P34972), entry COCCn1nnc2c(N3CCC(F)(F)C3)nc(C(C)(C)C)nc21
A. 8.48

Q. Requested read-out pEC50, target or system human CB2 receptors (Homo sapiens, UniProt P34972), entry CC(C)(C)c1nc(N2CC(F)(F)C2)c2nnn(Cc3ccccc3Cl)c2n1
A. 8.80

Q. Requested read-out pEC50, target or system human CB2 receptors (Homo sapiens, UniProt P34972), entry CC(C)(C)c1nc(N2CC(F)(F)C(F)(F)C2)c2nnn(Cc3ccccc3Cl)c2n1
A. 8.92

Q. Requested read-out pEC50, target or system human CB2 receptors (Homo sapiens, UniProt P34972), entry Cn1nncc1Cn1nnc2c(N3CC(F)(F)C(F)(F)C3)nc(C(C)(C)C)nc21
A. 9.05

Q. Requested read-out pEC50, target or system human CB2 receptors (Homo sapiens, UniProt P34972), entry CC(C)(C)c1nc(N2CCC(F)(F)C2)c2nnn([C@@H]3CCOC3)c2n1
A. 9.52

Q. Requested read-out pEC50, target or system human CB2 receptors (Homo sapiens, UniProt P34972), entry CC(C)(C)c1nc(N2CCC(F)(F)C2)c2nnn(Cc3ncccc3Cl)c2n1
A. 10.00

Q. Requested read-out pEC50, target or system human CB2 receptors (Homo sapiens, UniProt P34972), entry CC(C)(C)c1nc(N2CC[C@H](O)C2)c2nnn(Cc3nccc(Cl)c3Cl)c2n1
A. 9.40

Q. Requested read-out pEC50, target or system human CB2 receptors (Homo sapiens, UniProt P34972), entry CCOc1nc(C(C)(C)C)nc2c1nnn2Cc1ccccc1Cl
A. 8.04

Q. Requested read-out pEC50, target or system human CB2 receptors (Homo sapiens, UniProt P34972), entry CC(C)(C)c1nc(N2CCC(O)C2)c2nnn(Cc3ccccc3Cl)c2n1 (stereo not shown) [Example 218]
A. 9.30
